- Target: human IR (hIR) (Homo sapiens)
- Construct: containing amino acid residues 979-1382 of human IR
- Sequence (P06213 979-1382): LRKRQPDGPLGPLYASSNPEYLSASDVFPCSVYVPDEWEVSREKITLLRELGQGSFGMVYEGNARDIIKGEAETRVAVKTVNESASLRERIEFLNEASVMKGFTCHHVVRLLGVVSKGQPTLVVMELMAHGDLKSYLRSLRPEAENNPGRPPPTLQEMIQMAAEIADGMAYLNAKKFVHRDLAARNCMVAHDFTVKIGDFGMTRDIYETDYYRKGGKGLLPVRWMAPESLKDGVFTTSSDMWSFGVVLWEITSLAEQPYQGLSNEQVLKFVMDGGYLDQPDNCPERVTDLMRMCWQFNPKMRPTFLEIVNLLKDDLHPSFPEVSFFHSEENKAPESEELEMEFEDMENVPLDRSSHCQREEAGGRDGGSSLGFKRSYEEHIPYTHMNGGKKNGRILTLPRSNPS
- Experiment Summary: TR-FRET kinase assay of purified hIR
- Applied Conditions: activated hIR 0.5 nM, 10 μM ATP, values given as pIC50 category
pIC50: −log10 of the molar value.
Value Kind: pIC50

{"Smiles Structure": "Cc1ccc(NC(=O)CN(C)C)cc1Nc1nc(Nc2ccccc2C(=O)NCCO)c2cc[nH]c2n1", "Meas Value": "8.40 to 8.90"}
{"Smiles Structure": "CN(C)CC(=O)Nc1ccc(F)c(Nc2nc(Nc3ccccc3C(N)=O)c3cc[nH]c3n2)c1", "Meas Value": "9.00 to 9.60"}
{"Smiles Structure": "COc1cc(C2=CCCN(C)C2)ccc1Nc1nc(Nc2ccccc2C(N)=O)c2cc[nH]c2n1", "Meas Value": "9.00 to 9.60"}
{"Smiles Structure": "COc1cc(N2CCC(N3CCOCC3)CC2)ccc1Nc1nc(Nc2cc(F)ccc2C(N)=O)c2cc[nH]c2n1", "Meas Value": "8.40 to 8.90"}
{"Smiles Structure": "COc1cc2c(cc1Nc1nc(Nc3cccc(F)c3C(N)=O)c3cc[nH]c3n1)N(C(=O)CCN(C)C)CCC2", "Meas Value": "6.80 to 8.30"}
{"Smiles Structure": "COc1cc(C2=CCN(C(C)C)CC2)ccc1Nc1nc(Nc2cc(F)ccc2C(N)=O)c2cc[nH]c2n1", "Meas Value": "9.00 to 9.60"}
{"Smiles Structure": "CCCN1CCC=C(c2ccc(Nc3nc(Nc4cccc(F)c4C(N)=O)c4cc[nH]c4n3)c(OC)c2)C1", "Meas Value": "8.40 to 8.90"}

###

- Target: human IGF1R (hIGF1R) (Homo sapiens)
- Construct: containing amino acid residues 957-1367 of human IGF1R; made in house; host or cells: Sf9 cells (baculovirus)
- Sequence (P08069 957-1367): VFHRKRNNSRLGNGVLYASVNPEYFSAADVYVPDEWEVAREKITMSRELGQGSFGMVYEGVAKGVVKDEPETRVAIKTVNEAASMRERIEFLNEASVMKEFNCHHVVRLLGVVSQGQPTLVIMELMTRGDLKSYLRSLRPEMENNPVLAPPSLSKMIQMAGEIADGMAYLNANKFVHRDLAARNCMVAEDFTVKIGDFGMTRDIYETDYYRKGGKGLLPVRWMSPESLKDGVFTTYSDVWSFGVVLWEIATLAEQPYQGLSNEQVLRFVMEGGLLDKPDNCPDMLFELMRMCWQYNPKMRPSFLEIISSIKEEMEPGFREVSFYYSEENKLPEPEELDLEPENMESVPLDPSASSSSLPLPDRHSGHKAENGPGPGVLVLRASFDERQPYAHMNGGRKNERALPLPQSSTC
- Experiment Summary: TR-FRET kinase assay of purified hIGF1R
- Format: biochemical
- Applied Conditions: activated hIGF1R 0.5 nM, 10 μM ATP, values given as pIC50 category, read-out: IGF-1R pIC50 (converted)

{"Smiles Structure": "COc1cc(N2CCN(C(C)C)CC2)ccc1Nc1nc(Nc2ccccc2C(N)=O)c2cc[nH]c2n1", "Target": "human IGF1R (hIGF1R) (Homo sapiens)", "IC50": "0.251 to 1 nM"}
{"Smiles Structure": "CCN(C)CC(=O)N1CCc2cc(OC)c(Nc3nc(Nc4cccc(F)c4C(=O)NC)c4cc[nH]c4n3)cc21", "Target": "human IGF1R (hIGF1R) (Homo sapiens)", "IC50": "5.01 to 200 nM"}
{"Smiles Structure": "COc1cc2c(cc1Nc1nc(Nc3cccc(F)c3C(N)=O)c3cc[nH]c3n1)N(C(=O)CN1CCC1)CC2", "Target": "human IGF1R (hIGF1R) (Homo sapiens)", "IC50": "0.251 to 1 nM"}
{"Smiles Structure": "CCCNC(=O)c1c(F)cccc1Nc1nc(Nc2cc3c(cc2OC)CCN3C(=O)CN(C)C)nc2[nH]ccc12", "Target": "human IGF1R (hIGF1R) (Homo sapiens)", "IC50": "1.26 to 3.98 nM"}
{"Smiles Structure": "Cc1ccc(NC(=O)CN(C)C)cc1Nc1nc(Nc2ccccc2C(=O)NCc2ccc(F)cc2)c2cc[nH]c2n1", "Target": "human IGF1R (hIGF1R) (Homo sapiens)", "IC50": "5.01 to 200 nM"}
{"Smiles Structure": "CCCN(C)CC(=O)N1CCc2cc(OC)c(Nc3nc(Nc4cccc(F)c4C(=O)NC)c4cc[nH]c4n3)cc21", "Target": "human IGF1R (hIGF1R) (Homo sapiens)", "IC50": "1.26 to 3.98 nM"}
{"Smiles Structure": "CNC(=O)c1c(F)cccc1Nc1nc(Nc2cc3c(cc2OC)CCN3C(=O)[C@H]2CCCN2C)nc2[nH]ccc12", "Target": "human IGF1R (hIGF1R) (Homo sapiens)", "IC50": "5.01 to 200 nM"}
{"Smiles Structure": "CNC(=O)c1c(Nc2nc(Nc3cc4c(cc3OC)CCCN4C(=O)CN(C)C)nc3[nH]ccc23)ccc(F)c1F", "Target": "human IGF1R (hIGF1R) (Homo sapiens)", "IC50": "1.26 to 3.98 nM"}
{"Smiles Structure": "COc1cc(N2CCOCC2)ccc1Nc1nc(Nc2ccccc2C(N)=O)c2cc[nH]c2n1", "Target": "human IGF1R (hIGF1R) (Homo sapiens)", "IC50": "1.26 to 3.98 nM"}
{"Smiles Structure": "CN(C)CC(=O)Nc1ccc(OC(F)(F)F)c(Nc2nc(Nc3ccccc3C(N)=O)c3cc[nH]c3n2)c1", "Target": "human IGF1R (hIGF1R) (Homo sapiens)", "IC50": "0.251 to 1 nM"}
{"Smiles Structure": "COc1ccc(N2CCN(C)CC2)cc1Nc1nc(Nc2ccccc2C(N)=O)c2cc[nH]c2n1", "Target": "human IGF1R (hIGF1R) (Homo sapiens)", "IC50": "1.26 to 3.98 nM"}
{"Smiles Structure": "CNC(=O)c1c(F)cccc1Nc1nc(Nc2cc3c(cc2OC)CCN3C(=O)[C@@H]2CCCN2C)nc2[nH]ccc12", "Target": "human IGF1R (hIGF1R) (Homo sapiens)", "IC50": "5.01 to 200 nM"}
{"Smiles Structure": "CCN(CC)CC(=O)N1CCc2cc(OC)c(Nc3nc(Nc4cccc(F)c4C(N)=O)c4cc[nH]c4n3)cc21", "Target": "human IGF1R (hIGF1R) (Homo sapiens)", "IC50": "1.26 to 3.98 nM"}
{"Smiles Structure": "CCCN1CCC(c2ccc(Nc3nc(Nc4cc(F)cc(F)c4C(N)=O)c4cc[nH]c4n3)c(OC)c2)CC1", "Target": "human IGF1R (hIGF1R) (Homo sapiens)", "IC50": "0.251 to 1 nM"}
{"Smiles Structure": "Cc1ccc(NC(=O)CN(C)C)cc1Nc1nc(Nc2cc(Cl)ccc2C(N)=O)c2cc[nH]c2n1", "Target": "human IGF1R (hIGF1R) (Homo sapiens)", "IC50": "1.26 to 3.98 nM"}
